System: Talaromyces marneffei
Assay: Antifungal activity against Penicillium marneffei after 3 to 4 days by serial plate dilution method
Assay type: functional
Details: Talaromyces marneffei
endpoint-name: MIC (µg/mL)
Reply numerically in µg/mL, unit not repeated.

# example entries with known answers
OC(Cn1cncn1)(Cn1cncn1)c1ccc(F)cc1F [FLUCONAZOLE]	6.25
O=C(COc1ccc(Cl)cc1)N1N=C(c2ccc(Cl)cc2)CC1(O)c1cc(F)c(Cl)cc1Cl (stereo unspecified)	6.25
Cc1ccc(OCC(=O)N2N=C(c3ccccc3)CC2(O)c2cc(F)c(Cl)cc2Cl)cc1 (stereo unspecified)	12.5
COc1ccc(C2=NN(C(=O)COc3ccc(Cl)cc3Cl)C(O)(c3cc(F)c(Cl)cc3Cl)C2)cc1 (stereo unspecified)	6.25

I'd like to know its MIC. The molecule in question is O=C(COc1ccc(Cl)cc1Cl)N1N=C(c2ccccc2)CC1(O)c1cc(F)c(Cl)cc1Cl (stereo unspecified)
6.25

Another molecule to check: COc1ccc(C2=NN(C(=O)COc3ccc(Cl)cc3)C(O)(c3cc(F)c(Cl)cc3Cl)C2)cc1 (stereo unspecified)
6.25

Another molecule to check: COc1ccc(C2=NN(C(=O)COc3ccc(C)cc3)C(O)(c3cc(F)c(Cl)cc3Cl)C2)cc1 (stereo unspecified)
12.5

Another molecule to check: Cc1ccc(OCC(=O)N2N=C(c3ccc(Cl)cc3)CC2(O)c2cc(F)c(Cl)cc2Cl)cc1 (stereo unspecified)
6.25

* * *

# inhibition zone (IZ) listing for each entry below
Test system: Trichophyton benhamiae
Experiment: Antifungal activity against Trichophyton mentagrophytes after 3 to 4 days by serial plate dilution method; note: test concentration or dose not given here
Type: functional, Arthroderma benhamiae
Quick note: unit goes after the number.

# example entries with known answers
O=C(COc1ccc(Cl)cc1)N1N=C(c2ccccc2)CC1(O)c1cc(F)c(Cl)cc1Cl (centres undefined)	7 mm
COc1ccc(C2=NN(C(=O)COc3ccc(Cl)cc3Cl)C(O)(c3cc(F)c(Cl)cc3Cl)C2)cc1 (centres undefined)	18 mm
Cc1ccc(OCC(=O)N2N=C(c3ccc(Cl)cc3)CC2(O)c2cc(F)c(Cl)cc2Cl)cc1 (centres undefined)	20 mm

// next item, inhibition zone (IZ) requested
I'd like to know its inhibition zone (IZ). The molecule in question is O=C(COc1ccc(Cl)cc1Cl)N1N=C(c2ccccc2)CC1(O)c1cc(F)c(Cl)cc1Cl (centres undefined)
11 mm

* * *

Test system: Aspergillus flavus
Assay: Antifungal activity against Aspergillus flavus NCIM no. 524 after 3 to 4 days by serial plate dilution method
Assay type: functional
Details: Aspergillus flavus
# MIC listing for each entry below
Reply numerically in µg/mL, unit not repeated.

Cc1ccc(OCC(=O)N2N=C(c3ccccc3)CC2(O)c2cc(F)c(Cl)cc2Cl)cc1 (stereo not given)	25
OC(Cn1cncn1)(Cn1cncn1)c1ccc(F)cc1F	12.5
O=C(COc1ccc(Cl)cc1)N1N=C(c2ccccc2)CC1(O)c1cc(F)c(Cl)cc1Cl (stereo not given)	25
O=C(COc1ccc(Cl)cc1Cl)N1N=C(c2ccccc2)CC1(O)c1cc(F)c(Cl)cc1Cl (stereo not given)	12.5

// next item, MIC requested
I'd like to know its MIC. The compound in question is COc1ccc(C2=NN(C(=O)COc3ccc(C)cc3)C(O)(c3cc(F)c(Cl)cc3Cl)C2)cc1OC (stereo not given)
25

* * *

System: Trichophyton benhamiae
Test: Antifungal activity against Trichophyton mentagrophytes after 3 to 4 days by serial plate dilution method; note: test concentration or dose not given here
Format: functional, Arthroderma benhamiae
endpoint-name: inhibition zone (IZ) (mm)
Reply numerically in mm, unit not repeated.

# example entries with known answers
O=C(COc1ccc(Cl)cc1Cl)N1N=C(c2ccc(Cl)cc2Cl)CC1(O)c1cc(F)c(Cl)cc1Cl (centres undefined)	10
Cc1ccc(OCC(=O)N2N=C(c3ccc(Cl)cc3Cl)CC2(O)c2cc(F)c(Cl)cc2Cl)cc1 (centres undefined)	18
COc1ccc(C2=NN(C(=O)COc3ccc(Cl)cc3)C(O)(c3cc(F)c(Cl)cc3Cl)C2)cc1 (centres undefined)	19

I'd like to know its inhibition zone (IZ). The compound in question is O=C(COc1ccc(Cl)cc1)N1N=C(c2ccc(Cl)cc2)CC1(O)c1cc(F)c(Cl)cc1Cl (centres undefined)
19

Another compound to check: Cc1ccc(OCC(=O)N2N=C(c3ccccc3)CC2(O)c2cc(F)c(Cl)cc2Cl)cc1 (centres undefined)
10

Another compound to check: OC(Cn1cncn1)(Cn1cncn1)c1ccc(F)cc1F [FLUCONAZOLE]
20

Another compound to check: COc1ccc(C2=NN(C(=O)COc3ccc(C)cc3)C(O)(c3cc(F)c(Cl)cc3Cl)C2)cc1 (centres undefined)
10

Another compound to check: COc1ccc(C2=NN(C(=O)COc3ccc(C)cc3)C(O)(c3cc(F)c(Cl)cc3Cl)C2)cc1OC (centres undefined)
23

Another compound to check: O=C(COc1ccc(Cl)cc1Cl)N1N=C(c2ccc(Cl)cc2)CC1(O)c1cc(F)c(Cl)cc1Cl (centres undefined)
12

* * *

Tested on: Staphylococcus aureus; note: test concentration or dose not given here
Assay: microbe, parasite or virus in culture
Assay type: functional, ATCC 25923
endpoint-name: inhibition zone (IZ) (mm)
Reply numerically in mm, unit not repeated.

O=C(COc1ccc(Cl)cc1)N1N=C(c2ccccc2)CC1(O)c1cc(F)c(Cl)cc1Cl (centres undefined)	14
Cc1ccc(OCC(=O)N2N=C(c3ccc(Cl)cc3Cl)CC2(O)c2cc(F)c(Cl)cc2Cl)cc1 (centres undefined)	19
O=C(O)c1cn(C2CC2)c2cc(N3CCNCC3)c(F)cc2c1=O	19
O=C(COc1ccc(Cl)cc1Cl)N1N=C(c2ccccc2)CC1(O)c1cc(F)c(Cl)cc1Cl (centres undefined)	15
Cc1ccc(OCC(=O)N2N=C(c3ccc(Cl)cc3)CC2(O)c2cc(F)c(Cl)cc2Cl)cc1 (centres undefined)	19
Cc1ccc(OCC(=O)N2N=C(c3ccccc3)CC2(O)c2cc(F)c(Cl)cc2Cl)cc1 (centres undefined)	17
O=C(COc1ccc(Cl)cc1)N1N=C(c2ccc(Cl)cc2)CC1(O)c1cc(F)c(Cl)cc1Cl (centres undefined)	18
COc1ccc(C2=NN(C(=O)COc3ccc(Cl)cc3)C(O)(c3cc(F)c(Cl)cc3Cl)C2)cc1 (centres undefined)	19

// next item, inhibition zone (IZ) requested
I'd like to know its inhibition zone (IZ). The molecule in question is COc1ccc(C2=NN(C(=O)COc3ccc(Cl)cc3Cl)C(O)(c3cc(F)c(Cl)cc3Cl)C2)cc1 (centres undefined)
16

* * *

# MIC listing for each entry below
Tested on: Aspergillus flavus
Test: Antifungal activity against Aspergillus flavus NCIM no. 524 after 3 to 4 days by serial plate dilution method
Type: functional
Conditions: Aspergillus flavus
Reply numerically in µg/mL, unit not repeated.

COc1ccc(C2=NN(C(=O)COc3ccc(Cl)cc3)C(O)(c3cc(F)c(Cl)cc3Cl)C2)cc1 (stereo not drawn)	12.5
Cc1ccc(OCC(=O)N2N=C(c3ccc(Cl)cc3)CC2(O)c2cc(F)c(Cl)cc2Cl)cc1 (stereo not drawn)	12.5

I'd like to know its MIC. The compound in question is COc1ccc(C2=NN(C(=O)COc3ccc(Cl)cc3Cl)C(O)(c3cc(F)c(Cl)cc3Cl)C2)cc1 (stereo not drawn)
12.5

* * *

Tested on: Escherichia coli; note: test concentration or dose not given here
Assay: microbe, parasite or virus in culture
Assay type: functional, ATCC 25922
# inhibition zone (IZ) listing for each entry below
Reply numerically in mm, unit not repeated.

# example entries with known answers
Cc1ccc(OCC(=O)N2N=C(c3ccc(Cl)cc3)CC2(O)c2cc(F)c(Cl)cc2Cl)cc1 (centres undefined)	17
COc1ccc(C2=NN(C(=O)COc3ccc(Cl)cc3Cl)C(O)(c3cc(F)c(Cl)cc3Cl)C2)cc1OC (centres undefined)	9
O=C(O)c1cn(C2CC2)c2cc(N3CCNCC3)c(F)cc2c1=O	18
O=C(COc1ccc(Cl)cc1Cl)N1N=C(c2ccc(Cl)cc2)CC1(O)c1cc(F)c(Cl)cc1Cl (centres undefined)	10
Cc1ccc(OCC(=O)N2N=C(c3ccccc3)CC2(O)c2cc(F)c(Cl)cc2Cl)cc1 (centres undefined)	15

I'd like to know its inhibition zone (IZ). The compound in question is COc1ccc(C2=NN(C(=O)COc3ccc(Cl)cc3)C(O)(c3cc(F)c(Cl)cc3Cl)C2)cc1OC (centres undefined)
8

Another compound to check: O=C(COc1ccc(Cl)cc1Cl)N1N=C(c2ccc(Cl)cc2Cl)CC1(O)c1cc(F)c(Cl)cc1Cl (centres undefined)
17

Another compound to check: Cc1ccc(OCC(=O)N2N=C(c3ccc(Cl)cc3Cl)CC2(O)c2cc(F)c(Cl)cc2Cl)cc1 (centres undefined)
15

Another compound to check: O=C(COc1ccc(Cl)cc1Cl)N1N=C(c2ccccc2)CC1(O)c1cc(F)c(Cl)cc1Cl (centres undefined)
17

* * *

Tested on: Pseudomonas aeruginosa
Test: microbe, parasite or virus in culture
Type: functional, ATCC 27853
Settings: Pseudomonas aeruginosa, ATCC 27853, 24 h
Description: Antibacterial activity against Pseudomonas aeruginosa ATCC 27853 after 24 hrs by disc diffusion method
endpoint-name: MIC

O=C(COc1ccc(Cl)cc1)N1N=C(c2ccccc2)CC1(O)c1cc(F)c(Cl)cc1Cl (stereo not given)	> 100 µg/mL
O=C(COc1ccc(Cl)cc1)N1N=C(c2ccc(Cl)cc2)CC1(O)c1cc(F)c(Cl)cc1Cl (stereo not given)	6.25 µg/mL
COc1ccc(C2=NN(C(=O)COc3ccc(Cl)cc3)C(O)(c3cc(F)c(Cl)cc3Cl)C2)cc1OC (stereo not given)	> 100 µg/mL
Cc1ccc(OCC(=O)N2N=C(c3ccccc3)CC2(O)c2cc(F)c(Cl)cc2Cl)cc1 (stereo not given)	6.25 µg/mL
Cc1ccc(OCC(=O)N2N=C(c3ccc(Cl)cc3Cl)CC2(O)c2cc(F)c(Cl)cc2Cl)cc1 (stereo not given)	6.25 µg/mL

I'd like to know its MIC. The molecule in question is O=C(COc1ccc(Cl)cc1Cl)N1N=C(c2ccc(Cl)cc2Cl)CC1(O)c1cc(F)c(Cl)cc1Cl (stereo not given)
25 µg/mL

Another molecule to check: O=C(COc1ccc(Cl)cc1)N1N=C(c2ccc(Cl)cc2Cl)CC1(O)c1cc(F)c(Cl)cc1Cl (stereo not given)
> 100 µg/mL
